Task for the reader: assign each of the following molecules its reported TGI.
tested on: LOX IMVI melanoma; test: NCI tumour cell line growth inhibition, 48 h

O=c1c2cc(O)c(O)cc2oc2cc(O)c(C3OC(CO)C(O)C(O)C3O)c(O)c12 (stereo not drawn)	> 100 µM

Batch of 2 molecules: report TGI for each.
1. Cc1nc2ccc(N)cc2[nH]c1=O
2. COc1ccc(/C=C2\N=C(c3ccccc3)OC2=O)cc1OC(C)=O

["> 100 µM", "> 100 µM"]

---

tested on: SF-539 CNS; assay: NCI tumour cell line growth inhibition, 48 h; in the data active = GI50 below about 0.43 µM; inactive = the rest
Choose one outcome from this list and give only that: yes (active), no (inactive)

Cc1cn2c(/C=C3/C(=O)Nc4ccc(Cl)cc43)c(C)nc2s1	yes

How was CNCCNc1nc2ccccc2c2c(=O)c3cccc(C)c3sc12 classified in this test?
no

Short answer needed: outcome of this test for O=C(CSc1ncc(-c2ccccc2)n1-c1ccccc1)Nc1ccc(-c2nc3ccccc3s2)cc1 ?
no

---

system: CCRF-CEM leukemia; experiment: NCI tumour cell line growth inhibition, 48 h
Hi there, I'd appreciate the recorded TGI for every entry that follows.

O=C(NC1C(=O)NNC1c1ccccc1Cl)c1ccccc1 (stereo unspecified)	> 100 µM

For each of the compounds below, state TGI.
1. COC(=O)C1(O)c2ccccc2N=C2C1CCN2C (stereo unspecified)
2. CNc1ncc2cc(-c3cc(NC(=O)NCCC(C)(C)C)c(F)cc3C)c(C)nc2n1
3. COC(=O)N/N=C(/c1nc2ccc([N+](=O)[O-])cc2[nH]c1=O)C(O)c1ccc(OC)c(OC)c1 (stereo unspecified)
4. CC/C(=N/N=C(N)N)c1ccc(NC(=O)Nc2ccc(/C(CC)=N/N=C(N)N)cc2)cc1
5. O=c1c2cc(S(=O)(=O)O)ccc2nc(COc2ccc(Oc3ccc(Cl)cc3Cl)cc2)n1C(=S)Nc1ccc(Cl)cc1

1: > 100 µM; 2: > 100 µM; 3: > 100 µM; 4: 28.7 µM; 5: > 100 µM

---

tested on: MDA-N; experiment: NCI tumour cell line growth inhibition, 48 h
Metric: TGI

# annotated cases, reported TGI shown
CCCCCC(=Nc1n[nH]nc1C(N)=O)OCC	> 100 µM
COc1ccc2c(c1)CCc1c-2n(CCN2CCOCC2)c2ccc(OC)cc12	> 100 µM

Lab note: next compound to report on.
Please report the recorded TGI for Cn1cnc2c1c(=O)n(CCNCCO)c(=O)n2C .
> 100 µM

---

tested on: SNB-19 CNS; assay: NCI tumour cell line growth inhibition, 48 h
I'd appreciate it if you could supply TGI values for the items below.

The following compounds have reported results that may help.
O=C1N=C(Nc2nc(-c3csc(NC4=NC(=O)/C(=C\c5ccc(Cl)cc5)S4)n3)cs2)S/C1=C/c1ccc(Cl)cc1	> 50 µM
Cc1cc(N)cc(C)c1-c1c(Br)cc(N)cc1Br	> 100 µM
COCOc1c(C(OCOC)c2cnc(Sc3ccccc3)n2C)ccc(OC)c1OC (centres undefined)	> 100 µM
CC(C)COC(c1ccc2c(c1)OCO2)C(C)Br (centres undefined)	> 100 µM
CCn1c(O)c(C=Nc2ccccc2)s/c1=N/Nc1nc(-c2ccc(O)c(O)c2)cs1	> 100 µM
O=C(NNC(=O)c1ccccc1O)c1ccco1	> 100 µM

// for each compound in input: emit TGI
1. O=C(Nc1ccccc1)Nc1ccc(Cl)c(Cl)c1
2. Fc1ccc(-c2c(-c3ccncc3)[nH]c3nccnc23)cc1
3. COC(=O)N/N=C(\c1ccccc1)c1ccc(OC)cc1

> 100 µM
> 25 µM
> 100 µM
